TGT: T1, His-tagged human IL-1 Rrp2/IL-1 R6 protein (human, UniProt Q9HB29 20-335)
T1 construct: Bought reagent; also called Human IL-1 Rrp2/IL-1 R6 Protein, His Tag; ACRO Biosystems IL2-H52H6; not shown: His tag
T1 sequence (looked up): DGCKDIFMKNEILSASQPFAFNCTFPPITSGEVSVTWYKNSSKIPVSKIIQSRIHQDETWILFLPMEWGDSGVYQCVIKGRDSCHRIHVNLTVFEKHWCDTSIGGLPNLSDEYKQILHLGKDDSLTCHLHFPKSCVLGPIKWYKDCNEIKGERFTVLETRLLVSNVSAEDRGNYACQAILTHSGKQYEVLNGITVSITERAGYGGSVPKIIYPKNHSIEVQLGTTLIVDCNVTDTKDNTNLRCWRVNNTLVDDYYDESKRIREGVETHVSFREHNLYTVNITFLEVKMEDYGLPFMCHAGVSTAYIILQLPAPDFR
PROTOCOL_DETAILS: SPR (Biacore 8K), His-tagged antigen captured by anti-His on CM5, antibody as analyte, 1:1 model
PROPERTY_LABEL: koff
Include the unit after the number when you answer.

# input Dear colleague, I am looking for the recorded koff of the following binder: anti-IL-36R chimeric antibody 900497 (antibody, V domains shown, Human-mouse chimera: human IgG1 heavy-chain constant region with L234A and L235A (Eu numbering), human kappa constant region) VH: QVQLQQTGSVLVRPGTSVKLSCKASGYTFTSSWMHWAKQRPGQGLEWIGEIHPNSAKTNYNEKFKGKATLTVDTFSSTAYVDLSSLASEDSAVYYCARVDYGKPWFAYWGQGTLVTVSA VL: QIVLTQSPTIMSASPGERVTMTCSASSSVSSSYLHWYQQKPGSSPKLWIYSTSNLASGVPARFSGSGSGTSYSLTINSMEAEDAATYYCQQFQSSPLTFGAGTKLGLK
# output 1.68e-05 s⁻¹
